Recorded values, source ChEMBL document CHEMBL1201862.

test system: ACHN; assay: NCI tumour cell line growth inhibition, 48 h
The source made the active and inactive calls. Cut-off read from the data, not from the text of the source: active = GI50 up to about 1.1 µM and inactive = higher.
Quantity Kind: GI50

q: Identify measured GI50 corresponding to CCOC(=O)N[C@@H]1C2CC(=O)C(O2)[C@@H]1OC (stereo partly specified)
a: > 100 µM (inactive)

q: Identify measured GI50 corresponding to `Cc1ccc2ccccc2c1CC1S(=O)(=O)OCCOS1(=O)=O`
a: 14.4 µM (inactive)

q: Identify measured GI50 corresponding to COc1ccc(C2OC(=O)c3ccc4ccccc4c32)c(C)c1 (stereo unspecified)
a: 20.6 µM (inactive)

q: Identify measured GI50 corresponding to `Cc1nn(C)cc1P(=S)(c1ccccc1)c1ccccc1`
a: 61.7 µM (inactive)

q: Identify measured GI50 corresponding to C/C(CC(O)(/C=N/O)c1ccccc1)=N/O (stereo unspecified)
a: > 100 µM (inactive)

q: Identify measured GI50 corresponding to `Cc1cc([N+](=O)[O-])ccc1/N=N/C(=O)NNc1ccc([N+](=O)[O-])cc1C`
a: 15.8 µM (inactive)

q: Identify measured GI50 corresponding to `NNC1=N/C(=C\c2ccco2)C(=O)N1`
a: 47.5 µM (inactive)

q: Identify measured GI50 corresponding to OCC1CC2C=CCC(C2)C1 (stereo unspecified)
a: > 100 µM (inactive)

q: Identify measured GI50 corresponding to `NC(=O)C(=O)CC(=O)c1ccccc1NC1=CC(=O)C(=O)c2ccccc21`
a: > 87.9 µM (inactive)

q: Identify measured GI50 corresponding to `O=C1C[C@H]2[C@H](c3ccc(Br)cc3)[C@H]3C(=O)c4ccccc4NC(=O)[C@@H]3[C@@]2(O)c2ccccc2N1`
a: 11.2 µM (inactive)

q: Identify measured GI50 corresponding to `COCCOCc1nc(C#N)c(N)o1`
a: > 100 µM (inactive)

----------
test system: OVCAR-8; assay: NCI tumour cell line growth inhibition, 48 h
The source made the active and inactive calls. Rule as the data show it: active = GI50 up to about 1.1 µM and inactive = higher.
Lab note: assign the record to one of active, inactive

q: Returns: the outcome recorded for Cn1c2c(c3ccccc31)CCN1C(=O)CCC21 (configuration not stated) in this assay.
a: inactive

q: Returns: the outcome recorded for `CN(C)CCn1c(=O)c2ccc(NCCCN(C)CCCNc3ccc4c(=O)n(CCN(C)C)c(=O)n5c6ccc(O)cc6c(=O)c3c45)c3c(=O)c4cc(O)ccc4n(c1=O)c23` in this assay.
a: active

q: Returns: the outcome recorded for CCC(=O)NCC1CCCN2CCCCC12 (configuration not stated) in this assay.
a: inactive

q: Returns: the outcome recorded for `Cc1cccc(C)c1NC(=O)C(=O)CC(=O)CO` in this assay.
a: inactive

q: Returns: the outcome recorded for `O=C(NCCCCCN1CCC2(CCCCC2)CC1)C(C1CCCCC1)C1CCCCC1` in this assay.
a: inactive

q: Returns: the outcome recorded for Cc1ccc(NC(=O)C(=O)C(C#N)c2nc(-c3ccc(-c4ccccc4)cc3)cs2)c(C)c1 (configuration not stated) in this assay.
a: inactive

q: Returns: the outcome recorded for CCOC(=O)CC1(c2cccc3ccccc23)OC(=O)c2ccccc21 (configuration not stated) in this assay.
a: inactive

q: Returns: the outcome recorded for `Cn1c(=S)sc2nc3ccccc3n2c1=S` in this assay.
a: inactive

q: Returns: the outcome recorded for Cc1nnc(N)nc1C/C=C/C(C)Sc1ccc(Cl)cc1 (configuration not stated) in this assay.
a: inactive

q: Returns: the outcome recorded for `O=C1c2ccccc2-c2c1c1ccccc1c(=O)n2Cc1ccccc1` in this assay.
a: inactive

q: Returns: the outcome recorded for Cc1cc(O)c2c(c1)C(C1c3cccc(O)c3C(=O)c3c(O)cc(C)cc31)c1cccc(O)c1C2=O (configuration not stated) in this assay.
a: active

q: Returns: the outcome recorded for `CC1=C(C(=O)Nc2ccc(C)cc2)C(c2cccc([N+](=O)[O-])c2)C(C(=O)Nc2ccc(C)cc2)=C(C)N1` in this assay.
a: inactive

----------
tested on: NCI-H226; experiment: NCI tumour cell line growth inhibition, 48 h
Activity calls are given as the source filed them. Rule as the data show it: active = GI50 up to about 1.1 µM and inactive = higher.
Quantity Kind: GI50

q: Identify measured GI50 corresponding to `CC(C)c1cc(CN(C)C)c(O)c(C(C)(C)C)c1`
a: 21.5 µM (inactive)

q: Identify measured GI50 corresponding to `Cc1cc[n+]2c(c1)-c1cc(C)cc[n+]1CC2`
a: > 100 µM (inactive)

q: Identify measured GI50 corresponding to Cc1nnc(N)nc1C/C=C/C(C)Sc1ccc(Cl)cc1 (configuration not stated)
a: 2.04 µM (inactive)

q: Identify measured GI50 corresponding to COc1cc(C2=NN(C)C(c3ccc([N+](=O)[O-])o3)C2)cc(OC)c1OC (configuration not stated)
a: > 100 µM (inactive)

q: Identify measured GI50 corresponding to `COC(=O)c1nc2c(C)c(O)c(O)c([C@H](C)CCC=C(C)C)c2o1`
a: 17.9 µM (inactive)

q: Identify measured GI50 corresponding to OCC1OC(n2cnc3c(/C=C(/O)c4ccccc4)ncnc32)C(O)C1O (configuration not stated)
a: 5.38 µM (inactive)

q: Identify measured GI50 corresponding to Fc1ccc(C2SCc3nc4ccccc4n32)cc1 (configuration not stated)
a: 37.4 µM (inactive)

q: Identify measured GI50 corresponding to `Cc1cc(N(CCC#N)CCC#N)ccc1/N=N/c1ccccc1[N+](=O)[O-]`
a: > 100 µM (inactive)

q: Identify measured GI50 corresponding to `N#CC(C#N)=CNCCN1CCN(C=C(C#N)C#N)CC1`
a: > 100 µM (inactive)

q: Identify measured GI50 corresponding to `O=CN1CCN(C(=O)c2cc(Cl)cc(Cl)c2)C1=S`
a: 14.7 µM (inactive)

q: Identify measured GI50 corresponding to `N/N=C(\N)Nc1cccc2ccccc12`
a: > 100 µM (inactive)

q: Identify measured GI50 corresponding to `CC(C)OC(=O)NCCn1cc(-c2ccccc2)nn1`
a: > 100 µM (inactive)

----------
test system: NCI-H23; experiment: NCI tumour cell line growth inhibition, 48 h
Activity calls are given as the source filed them. Rule as the data show it: active = GI50 up to about 1.1 µM and inactive = higher.
Provide the recorded GI50 for the entries that follow.

q: Write down the reported GI50 (system: NCI-H23) of O=S1(=O)c2ccccc2C(Nc2ccccc2)N1c1ccccc1 (stereo unspecified)
a: > 100 µM (inactive)

q: Write down the reported GI50 (system: NCI-H23) of `CC(=O)c1c(C)cn(S(=O)(=O)NC(=O)Nc2nncs2)c1C`
a: > 100 µM (inactive)

q: Write down the reported GI50 (system: NCI-H23) of `Cn1c(=O)c2nc(CCCCc3nc4ccccc4[nH]3)[nH]c2n(C)c1=O`
a: > 100 µM (inactive)

q: Write down the reported GI50 (system: NCI-H23) of `Oc1[nH]c(Nc2cccc(CC(F)(F)F)c2)nc2ncnc1-2`
a: > 100 µM (inactive)

q: Write down the reported GI50 (system: NCI-H23) of `O=C1NC(NNc2ccccc2)=N/C1=C\c1ccco1`
a: 18.8 µM (inactive)

q: Write down the reported GI50 (system: NCI-H23) of `C=C(C)C1(Sc2ccc(OC)cc2)CC1`
a: 31.2 µM (inactive)

q: Write down the reported GI50 (system: NCI-H23) of `O=C(O)/C(Cc1ccc([N+](=O)[O-])cc1)=N\O`
a: > 100 µM (inactive)

q: Write down the reported GI50 (system: NCI-H23) of CC(Oc1ccc(Cl)cc1Cl)C(=O)NN1C(=O)CC(=O)NC1=S (stereo unspecified)
a: > 100 µM (inactive)

q: Write down the reported GI50 (system: NCI-H23) of `Cn1c([C@H](C#N)c2ncccc2[N+](=O)[O-])nc2ccccc21`
a: 59 µM (inactive)

q: Write down the reported GI50 (system: NCI-H23) of `CCc1nnc(S)n1/N=C\c1ccc(-c2ccccc2[N+](=O)[O-])o1`
a: 33.3 µM (inactive)

q: Write down the reported GI50 (system: NCI-H23) of `CCOC(=O)c1nc2ccccc2nc1Nc1ccc(Cl)c(Cl)c1`
a: 33.7 µM (inactive)

----------
system: NCI-H460; test: NCI tumour cell line growth inhibition, 48 h
Active and inactive are the calls of the source. No stated cut-off is given here; in the data, active = GI50 up to about 1.1 µM and inactive = higher.
Lab note: assign the record to one of active, inactive

q: Returns: the outcome recorded for `COC(=O)c1nc2c(C)c(O)c(O)c([C@H](C)CCC=C(C)C)c2o1` in this assay.
a: inactive

q: Returns: the outcome recorded for `O=C(O)/C(Cc1ccc([N+](=O)[O-])cc1)=N\O` in this assay.
a: inactive

q: Returns: the outcome recorded for CCOC(=O)N[C@@H]1C2CC(=O)C(O2)[C@@H]1OC (stereo not given in full) in this assay.
a: inactive

q: Returns: the outcome recorded for `C/C(=N/NC(=S)Nc1cccc(C)c1)c1ccccn1` in this assay.
a: active

q: Returns: the outcome recorded for `Cn1c2ccccc2c2c3c(=O)[nH][nH]c(=O)c3c3c4ccccc4n(C)c3c21` in this assay.
a: inactive

q: Returns: the outcome recorded for COc1c(Cl)c2c(c(OC)c1OC)-c1ccc(OC)c(=O)c(Cl)c1C(NC(C)=O)CC2 (stereo not given) in this assay.
a: active

q: Returns: the outcome recorded for CC(C)C12Cc3c(ccc4ccccc34)OC1(C)Oc1ccc3ccccc3c1C2 (stereo not given) in this assay.
a: inactive

q: Returns: the outcome recorded for `COC(=O)c1cc(O)c(O)c(O)c1-c1c(O)c(O)c(O)c(SC[C@H](NC(=O)OCc2ccccc2)C(=O)OCc2ccccc2)c1C(=O)OC` in this assay.
a: inactive

q: Returns: the outcome recorded for Cc1cccc(C)c1N1C(=O)C(=O)C(c2nc3ccccc3s2)/C(=N/c2cccc3c(=O)[nH][nH]c(=O)c23)C1=O (stereo not given) in this assay.
a: inactive

q: Returns: the outcome recorded for `NN=C(CC(O)(C(F)(F)Cl)C(F)(F)Cl)CC(O)(C(F)(F)Cl)C(F)(F)Cl` in this assay.
a: inactive

q: Returns: the outcome recorded for O=S(=O)(C1=CC(S(=O)(=O)c2ccccc2)COC1)c1ccccc1 (stereo not given) in this assay.
a: inactive

q: Returns: the outcome recorded for O=S1(=O)c2ccccc2C(Nc2ccccc2)N1c1ccccc1 (stereo not given) in this assay.
a: inactive

q: Returns: the outcome recorded for `Cc1cccc2c1c(=O)c1c(O)cc(O)cc1n2C` in this assay.
a: inactive

q: Returns: the outcome recorded for `N#CC1(c2nc3ccccc3o2)C(=O)C(=O)N(c2ccc(Cl)c(Cl)c2)C(=O)C1=O` in this assay.
a: inactive

q: Returns: the outcome recorded for CCCCCCCCCCCCCC(=O)OC1CC(=O)OC1CO (stereo not given) in this assay.
a: inactive

q: Returns: the outcome recorded for `Cc1cnc2ccc(C)c([N+](=O)[O-])c2c1NCCCN(C)C` in this assay.
a: inactive

q: Returns: the outcome recorded for `CC(=N\N=C\c1ccccn1)/C(C)=N/N=C(C)/C(C)=N/N=C/c1ccccn1` in this assay.
a: inactive

q: Returns: the outcome recorded for `Cn1c(=O)c2nc(CCCCc3nc4ccccc4[nH]3)[nH]c2n(C)c1=O` in this assay.
a: inactive

q: Returns: the outcome recorded for `CCCCc1c2c(nc3c1CCc1cc4c(nc1-3)-c1nc3c(c(CCCC)c1CC4)CCC/C3=C\c1ccccc1)/C(=C/c1ccccc1)CCC2` in this assay.
a: inactive

q: Returns: the outcome recorded for `CC(=O)c1c(C)cn(S(=O)(=O)NC(=O)Nc2nncs2)c1C` in this assay.
a: inactive
